test system: DU-145; assay: Cytotoxicity against human DU145 cells after 2 hrs by methylene blue staining-based spectrophotometric analysis; format: functional, cell-based; conditions: DU-145, 2 h
measurement-name: IC50 (nM)
Dear colleague, please return just the value in nM, with no unit written.

So, `COc1ccc2c3c(c4cc(OC)c(OC)cc4c2c1)C[C@H]1[C@H](O)CCN1C3` ? Its IC50 was 850

So, `COc1ccc2c3c(c4cc(OC)c(OC)cc4c2c1)C[C@H]1CC(=O)CCN1C3` ? Its IC50 was 45

So, `COc1ccc2c3c(c4cc(OC)c(OC)cc4c2c1)C[C@H]1C[C@@H](O)[C@H](O)CN1C3` ? Its IC50 was 1710

So, `COc1ccc2c3c(c4cc(OC)c(OC)cc4c2c1)C[C@H]1CC[C@H](O)CN1C3` ? Its IC50 was 2250

So, `COc1ccc2c3c(c4cc(OC)c(OC)cc4c2c1)C[C@H]1C[C@H](O)[C@@H](O)CN1C3` ? Its IC50 was 600

So, `COc1ccc2c3c(c4cc(OC)c(OC)cc4c2c1)C[C@H]1[C@@H](O)CCCN1C3` ? Its IC50 was 33
